molecular target: Muscarinic acetylcholine receptor M4 (Homo sapiens, UniProt P08173); format: cell membranes, CHO-K1, Membrane; conditions: read-out: Ki; also: in other assays of this panel Not Active means under 50% inhibition at 10 µM
Sequence (P08173 whole entry): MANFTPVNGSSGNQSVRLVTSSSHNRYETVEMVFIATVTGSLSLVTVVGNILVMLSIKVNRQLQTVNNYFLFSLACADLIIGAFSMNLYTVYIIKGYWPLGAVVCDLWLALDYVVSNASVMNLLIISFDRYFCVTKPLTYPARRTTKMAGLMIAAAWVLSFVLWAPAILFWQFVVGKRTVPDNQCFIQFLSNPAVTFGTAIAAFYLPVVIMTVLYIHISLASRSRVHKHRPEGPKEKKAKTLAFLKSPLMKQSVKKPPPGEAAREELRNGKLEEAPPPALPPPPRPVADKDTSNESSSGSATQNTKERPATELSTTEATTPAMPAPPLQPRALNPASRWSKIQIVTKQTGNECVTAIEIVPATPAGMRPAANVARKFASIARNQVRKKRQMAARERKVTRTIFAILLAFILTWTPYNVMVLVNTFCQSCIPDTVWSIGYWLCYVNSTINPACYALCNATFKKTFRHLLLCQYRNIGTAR
measurement.label: Ki (nM)
Numbers only, in nM.

These recorded examples may help you get a feel for the data.
CCc1c2c(nc3ccc(OC(=O)N4CCC(N5CCCCC5)CC4)cc13)-c1cc3c(c(=O)n1C2)COC(=O)[C@]3(O)CC :: 217
CN1CCC(=C2c3ccccc3C=Cc3ccccc32)CC1 :: 2.19

Now look at this entry.
Give recorded Ki. CN(C)c1ccc(C(=C2C=CC(=[N+](C)C)C=C2)c2ccc(N(C)C)cc2)cc1.[Cl-]
140

---

molecular target: UniProtKB P51681; format: cell membranes, HEK293, Membrane; conditions: read-out: IC50
Sequence (P51681 whole entry): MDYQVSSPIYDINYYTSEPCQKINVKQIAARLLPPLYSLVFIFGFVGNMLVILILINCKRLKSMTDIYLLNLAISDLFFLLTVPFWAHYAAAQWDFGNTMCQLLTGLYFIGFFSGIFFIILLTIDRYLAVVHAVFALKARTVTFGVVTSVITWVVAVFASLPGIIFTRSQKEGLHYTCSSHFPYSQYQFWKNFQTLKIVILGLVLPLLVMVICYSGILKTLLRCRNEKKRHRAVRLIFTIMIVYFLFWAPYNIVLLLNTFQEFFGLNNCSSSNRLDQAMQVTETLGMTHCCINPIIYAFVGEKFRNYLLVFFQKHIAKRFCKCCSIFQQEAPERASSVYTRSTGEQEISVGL
measurement.label: pIC50
Give bare numbers, as −log10 of the molar value.

Give recorded pIC50. CC(C)(C)c1ccc(C(O)CCCN2CCC(C(O)(c3ccccc3)c3ccccc3)CC2)cc1 (stereo unspecified)
5.96

---

assay: DRUGMATRIX: Glutamate, Kainate radioligand binding (ligand: [3H] Kainic acid); type: cell membranes, Rattus norvegicus, Wistar, Brain, Membrane; details: Not Active = under 50% inhibition at 10 µM
measurement.label: Ki

Cc1onc(-c2ccccc2)c1-c1ccc(S(N)(=O)=O)cc1 :: Not Active
COc1ccccc1C(=O)N1CCC(Cc2ccccc2)CC1 :: Not Active
CCCC(=O)Nc1ccc(OCC(O)CNC(C)C)c(C(C)=O)c1 (stereo not drawn) :: Not Active
N=C(Nc1ccccc1)Nc1ccccc1 :: Not Active
CN1C(=O)COc2c(C(=O)NC3CN4CCC3CC4)cc(Cl)cc21 (stereo not drawn) :: Not Active
O=C(C1CCCCC1)N1CC(=O)N2CCc3ccccc3C2C1 (stereo not drawn) :: Not Active

I'm hoping you can list Ki for every molecule here, please.
1. CC(C)(Oc1ccc(C2CCCc3ccccc32)cc1)C(=O)O (stereo not drawn)
2. CC(C)CC(N(C)C)C1(c2ccc(Cl)cc2)CCC1 (stereo not drawn)
3. Nc1c(CC(=O)O)cccc1C(=O)c1ccc(Br)cc1

1: Not Active; 2: Not Active; 3: Not Active

---

molecular target: UniProtKB P08912; type: cell membranes, CHO-K1, Membrane; details: cho-k1
Sequence (P08912 whole entry): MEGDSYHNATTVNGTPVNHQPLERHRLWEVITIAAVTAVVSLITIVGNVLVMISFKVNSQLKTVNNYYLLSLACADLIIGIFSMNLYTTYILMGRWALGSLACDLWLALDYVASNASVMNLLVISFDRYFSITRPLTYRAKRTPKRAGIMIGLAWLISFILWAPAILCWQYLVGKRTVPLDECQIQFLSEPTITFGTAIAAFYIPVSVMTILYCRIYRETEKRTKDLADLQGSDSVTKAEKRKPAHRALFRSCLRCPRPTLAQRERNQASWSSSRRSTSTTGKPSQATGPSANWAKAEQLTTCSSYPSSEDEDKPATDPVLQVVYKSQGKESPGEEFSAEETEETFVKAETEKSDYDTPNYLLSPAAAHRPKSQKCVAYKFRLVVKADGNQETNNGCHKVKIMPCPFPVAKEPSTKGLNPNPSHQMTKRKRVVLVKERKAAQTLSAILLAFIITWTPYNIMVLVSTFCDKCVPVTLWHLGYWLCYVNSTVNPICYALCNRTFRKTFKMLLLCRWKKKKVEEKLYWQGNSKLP
measurement.label: IC50

These recorded examples may help you get a feel for the data.
CC(C)(C)c1ccc(C(O)CCCN2CCC(C(O)(c3ccccc3)c3ccccc3)CC2)cc1 (stereo not given) [TERFENADINE] :: Not Active
COc1ccc2cc([C@H](C)C(=O)O)ccc2c1 [NAPROXEN] :: Not Active
ClC(Cl)Cl [CHLOROFORM] :: Not Active
O=C(c1ccc(OCCN2CCCCC2)cc1)c1c(-c2ccc(O)cc2)sc2cc(O)ccc12 [RALOXIFENE] :: Not Active
COc1cc2c(c(OC)c1OC)-c1ccc(OC)c(=O)cc1[C@@H](NC(C)=O)CC2 [COLCHICINE] :: Not Active

I'm hoping you can list IC50 for every compound here, please.
1. O=C1CC[C@H](N2C(=O)c3ccccc3C2=O)C(=O)N1
2. COCCOC(=O)C1=C(C)NC(C)=C(C(=O)OC(C)C)C1c1cccc([N+](=O)[O-])c1 (stereo not given) [NIMODIPINE]
3. CC(C)CC(N(C)C)C1(c2ccc(Cl)cc2)CCC1 (stereo not given) [SIBUTRAMINE]
4. Cc1cc(=O)n(-c2ccccc2)n1C [ANTIPYRINE]
5. CC(=O)Nc1ccc(O)cc1 [ACETAMINOPHEN]
6. N=C(Nc1ccccc1)Nc1ccccc1
7. CCc1c2c(nc3ccc(OC(=O)N4CCC(N5CCCCC5)CC4)cc13)-c1cc3c(c(=O)n1C2)COC(=O)[C@]3(O)CC [IRINOTECAN]

Not Active
Not Active
Not Active
Not Active
Not Active
Not Active
Not Active
